FYI, the data here is from the supplement of paper PMC8728848.

assay target: Neu5Ac(a2-3)Gal(b1-3)[Neu5Ac(a2-6)]GlcNAc(b1-3)[Fuc(a1-3)[Gal(b1-4)]GlcNAc(b1-6)]Gal(b1-4)Glc
protocol text: glycan array binding signal (z-score within array); higher = stronger binding
cond: glycan notation: IUPAC condensed, linker removed
The entries come from a sample that favours the strongest signals as a whole.
Overview of reported glycan array binding signal (z-score) across a group of binders:
// print number alone

Use the examples below as a reference point.
{"columns": ["binder", "glycan array binding signal (z-score)"],
 "data": [
  ["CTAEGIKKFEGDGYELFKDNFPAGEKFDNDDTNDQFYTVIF [MUB40 (Lactobacillus reuteri)]", -0.114],
  ["EUL D1A second (Oryza sativa) (protein) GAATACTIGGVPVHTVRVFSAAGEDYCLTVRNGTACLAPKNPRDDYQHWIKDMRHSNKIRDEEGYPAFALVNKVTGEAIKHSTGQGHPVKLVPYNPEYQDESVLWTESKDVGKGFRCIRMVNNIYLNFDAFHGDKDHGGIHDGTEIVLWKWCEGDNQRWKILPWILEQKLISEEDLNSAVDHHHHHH", 1.26],
  ["Nc3LysM (protein) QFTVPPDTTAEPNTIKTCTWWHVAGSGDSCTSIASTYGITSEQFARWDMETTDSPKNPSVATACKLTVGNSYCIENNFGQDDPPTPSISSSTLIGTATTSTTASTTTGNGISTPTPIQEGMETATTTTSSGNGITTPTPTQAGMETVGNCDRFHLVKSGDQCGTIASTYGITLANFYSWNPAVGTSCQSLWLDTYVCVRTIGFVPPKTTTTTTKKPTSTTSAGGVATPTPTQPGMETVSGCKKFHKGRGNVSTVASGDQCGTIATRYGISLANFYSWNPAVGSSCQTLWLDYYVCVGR", -0.004]
]}

From here, focus on the item given below.
INPUT: Please give measured glycan array binding signal (z-score) of the following entry: Sebin1 (Coprinopsis cinerea), A8PEE3 (protein) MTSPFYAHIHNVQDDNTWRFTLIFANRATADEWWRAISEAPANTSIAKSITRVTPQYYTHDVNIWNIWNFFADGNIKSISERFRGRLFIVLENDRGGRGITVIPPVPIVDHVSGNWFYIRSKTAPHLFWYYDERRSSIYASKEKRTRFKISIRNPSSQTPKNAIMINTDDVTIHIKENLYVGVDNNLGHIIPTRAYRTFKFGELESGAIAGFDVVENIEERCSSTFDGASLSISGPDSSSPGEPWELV
OUTPUT: -0.727
